Origin of values: patent US10561638B2

# Experimental system: Ca2+/calmodulin protein kinase II
# Assay method text: Enzyme selectivity assay
pIC50: −log10 of the molar value.
Measure name: pIC50

Check the records and state pIC50 for Cl.NCc1c[nH]c(=S)n1[C@H]1CCc2c(F)cc(F)cc2C1 [nepicastat, hydrochloride]
< 5.00

---

# Experimental system: α2B adrenoceptors (Homo sapiens)
# Sequence (P18089 whole entry): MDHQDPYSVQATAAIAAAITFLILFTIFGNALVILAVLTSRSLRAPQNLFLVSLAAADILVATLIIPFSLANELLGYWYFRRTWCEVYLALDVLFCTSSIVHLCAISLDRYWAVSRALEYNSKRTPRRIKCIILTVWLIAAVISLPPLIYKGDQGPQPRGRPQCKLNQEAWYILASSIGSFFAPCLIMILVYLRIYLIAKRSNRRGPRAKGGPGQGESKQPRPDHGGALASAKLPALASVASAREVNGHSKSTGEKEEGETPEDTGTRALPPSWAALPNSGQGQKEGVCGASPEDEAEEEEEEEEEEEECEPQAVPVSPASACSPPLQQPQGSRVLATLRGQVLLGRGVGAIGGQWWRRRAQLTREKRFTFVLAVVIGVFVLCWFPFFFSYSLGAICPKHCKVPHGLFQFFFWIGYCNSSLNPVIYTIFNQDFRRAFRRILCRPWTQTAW
pKi: −log10 of the molar value.
Measure name: pKi

Fill in pKi for Cl.NCc1c[nH]c(=S)n1[C@H]1CCc2c(F)cc(F)cc2C1 [nepicastat, hydrochloride] tested with α2B adrenoceptors (Homo sapiens).
< 5.00

---

# Experimental system: μ opioid receptors (Homo sapiens, UniProt P35372)
# Sequence (P35372 whole entry): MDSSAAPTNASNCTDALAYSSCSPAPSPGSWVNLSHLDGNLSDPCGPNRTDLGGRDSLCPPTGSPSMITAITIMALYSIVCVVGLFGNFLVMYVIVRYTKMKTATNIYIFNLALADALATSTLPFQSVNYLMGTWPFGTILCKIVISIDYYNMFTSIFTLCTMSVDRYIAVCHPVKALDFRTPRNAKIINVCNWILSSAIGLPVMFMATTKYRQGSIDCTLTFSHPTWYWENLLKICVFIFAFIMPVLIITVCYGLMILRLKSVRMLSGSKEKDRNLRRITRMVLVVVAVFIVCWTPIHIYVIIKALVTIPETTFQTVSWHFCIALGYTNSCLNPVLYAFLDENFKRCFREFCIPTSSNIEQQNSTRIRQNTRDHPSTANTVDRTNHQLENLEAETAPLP
pKi: −log10 of the molar value.
Measure name: pKi

Check the records and state pKi for Cl.NCc1c[nH]c(=S)n1[C@H]1CCc2c(F)cc(F)cc2C1 [nepicastat, hydrochloride]
< 5.00

---

# Experimental system: UniProtKB P07101
# Sequence (P07101 whole entry): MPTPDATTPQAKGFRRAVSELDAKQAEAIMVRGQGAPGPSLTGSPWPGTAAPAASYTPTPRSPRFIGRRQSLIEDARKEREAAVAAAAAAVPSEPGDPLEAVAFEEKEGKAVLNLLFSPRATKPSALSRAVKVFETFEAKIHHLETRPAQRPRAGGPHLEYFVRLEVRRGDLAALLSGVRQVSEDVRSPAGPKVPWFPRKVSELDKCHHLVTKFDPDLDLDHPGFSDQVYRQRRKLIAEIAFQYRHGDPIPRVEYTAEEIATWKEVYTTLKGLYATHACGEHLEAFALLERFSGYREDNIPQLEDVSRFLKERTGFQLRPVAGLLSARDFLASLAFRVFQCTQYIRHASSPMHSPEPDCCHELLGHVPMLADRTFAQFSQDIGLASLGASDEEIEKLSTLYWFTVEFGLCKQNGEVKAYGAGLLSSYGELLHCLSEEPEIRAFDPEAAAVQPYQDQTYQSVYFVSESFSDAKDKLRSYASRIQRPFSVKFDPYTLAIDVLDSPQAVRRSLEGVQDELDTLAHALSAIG
pIC50: −log10 of the molar value.
Measure name: pIC50

Fill in pIC50 for Cl.NCc1c[nH]c(=S)n1[C@H]1CCc2c(F)cc(F)cc2C1 [nepicastat, hydrochloride] tested with UniProtKB P07101.
< 5.00

---

# Experimental system: acyl CoA-cholesterol acyl transferase
# Assay method text: Enzyme selectivity assay
Measure name: IC50

Fill in IC50 for Cl.NCc1c[nH]c(=S)n1[C@H]1CCc2c(F)cc(F)cc2C1 [nepicastat, hydrochloride] tested with acyl CoA-cholesterol acyl transferase.
> 10 µM

---

# Experimental system: human dopamine β-hydroxylase (Homo sapiens, UniProt P09172)
# Construct: Human secretory DBH was purified from the culture medium of the neuroblastoma cell line SK-N-SH; endogenous in cells
# Sequence (P09172 40-617 limits assumed): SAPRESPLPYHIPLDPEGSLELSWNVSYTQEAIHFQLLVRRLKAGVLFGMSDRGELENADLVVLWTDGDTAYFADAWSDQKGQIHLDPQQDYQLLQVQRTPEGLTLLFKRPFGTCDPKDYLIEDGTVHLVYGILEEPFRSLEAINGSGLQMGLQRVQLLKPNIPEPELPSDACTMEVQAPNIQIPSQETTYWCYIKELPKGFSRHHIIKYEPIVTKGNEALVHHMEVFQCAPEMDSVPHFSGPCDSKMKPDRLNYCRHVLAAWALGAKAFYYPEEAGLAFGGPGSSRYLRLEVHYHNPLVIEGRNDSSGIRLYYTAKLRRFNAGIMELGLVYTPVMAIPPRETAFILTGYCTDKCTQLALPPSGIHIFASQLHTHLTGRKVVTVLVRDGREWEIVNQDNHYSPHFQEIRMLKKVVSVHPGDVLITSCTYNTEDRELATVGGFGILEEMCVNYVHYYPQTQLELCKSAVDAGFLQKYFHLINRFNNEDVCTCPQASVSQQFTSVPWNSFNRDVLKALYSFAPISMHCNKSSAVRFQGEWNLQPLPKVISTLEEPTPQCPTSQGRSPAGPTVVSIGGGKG
# Assay method text: DBH assay, conversion of tyramine to octopamine
# Condition parameters: 0.1 mM tyramine, 4 mM ascorbate, pH 5.2
Measure name: IC50 (nM)
Only the number, expressed in nM, is required.

Check the records and state IC50 for Fc1cc(F)cc(Cn2cc[nH]c2=S)c1 [SKF-102698, reference compound]
85

---

# Experimental system: 5-HT1A serotonin receptors (Homo sapiens)
# Sequence (P08908 1-422): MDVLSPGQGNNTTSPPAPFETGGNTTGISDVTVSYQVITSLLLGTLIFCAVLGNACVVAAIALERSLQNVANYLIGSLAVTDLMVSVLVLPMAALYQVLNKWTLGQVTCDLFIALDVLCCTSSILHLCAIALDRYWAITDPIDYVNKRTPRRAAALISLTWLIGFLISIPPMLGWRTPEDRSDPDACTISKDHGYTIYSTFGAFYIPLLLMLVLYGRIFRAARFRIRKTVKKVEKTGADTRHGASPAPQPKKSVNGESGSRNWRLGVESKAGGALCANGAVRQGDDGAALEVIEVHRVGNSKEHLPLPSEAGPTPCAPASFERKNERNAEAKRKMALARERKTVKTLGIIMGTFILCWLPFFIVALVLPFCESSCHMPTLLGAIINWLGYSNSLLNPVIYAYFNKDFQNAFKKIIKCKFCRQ
# Assay method text: Radioligand binding assay
pKi: −log10 of the molar value.
Measure name: pKi

Check the records and state pKi for Cl.NCc1c[nH]c(=S)n1[C@H]1CCc2c(F)cc(F)cc2C1 [nepicastat, hydrochloride]
< 5.00
